Assay Target: full-length NS3/NS4A-2 (HCV NS3 protease) (Hepatitis C virus genotype 1a, UniProt P27958)
Construct: Recombinant E. coli or Baculovirus full-length NS3 was diluted to 3.33 μM with assay buffer; made in house; host or cells: E. coli or baculovirus (BV) expression system
Sequence (P27958 1027-1657): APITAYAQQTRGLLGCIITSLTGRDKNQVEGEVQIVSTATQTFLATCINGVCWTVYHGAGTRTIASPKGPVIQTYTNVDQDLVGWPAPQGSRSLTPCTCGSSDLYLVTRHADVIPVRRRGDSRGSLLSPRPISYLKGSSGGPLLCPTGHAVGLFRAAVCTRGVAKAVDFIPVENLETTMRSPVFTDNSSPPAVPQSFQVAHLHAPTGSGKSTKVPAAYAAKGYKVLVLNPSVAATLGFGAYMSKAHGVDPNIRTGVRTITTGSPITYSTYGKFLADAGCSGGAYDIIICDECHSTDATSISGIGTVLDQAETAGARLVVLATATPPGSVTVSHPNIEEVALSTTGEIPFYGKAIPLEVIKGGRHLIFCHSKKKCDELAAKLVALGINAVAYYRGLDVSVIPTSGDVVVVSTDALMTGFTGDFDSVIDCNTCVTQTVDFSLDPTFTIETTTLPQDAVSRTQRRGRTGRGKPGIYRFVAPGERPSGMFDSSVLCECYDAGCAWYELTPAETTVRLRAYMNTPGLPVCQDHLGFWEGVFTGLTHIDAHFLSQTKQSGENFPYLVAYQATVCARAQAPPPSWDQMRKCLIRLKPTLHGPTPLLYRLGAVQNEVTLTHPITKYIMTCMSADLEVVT
Measurement Notes: NS3-NS4 protease assay / NS3 inhibition assay (RETS1 substrate, fluorescence kinetic read)
Assay type: biochemical
Condition Summary: recombinant E. coli or Baculovirus full-length NS3 with NS4A-2; read-out: NS3-NS4 IC50

Compound	Assay Target	IC50
CC(C)(C)OC(=O)N[C@H]1CCCCC/C=C\[C@@H]2C[C@@]2(C(=O)NS(=O)(=O)C2CC2)NC(=O)C2Cc3cc(Oc4cccc(C(F)(F)F)c4)ccc3CN2C1=O (some centres unmarked) [Compound 2008]	full-length NS3/NS4A-2 (HCV NS3 protease) (Hepatitis C virus genotype 1a, UniProt P27958)	< 1000 nM
O=C(N[C@H]1CCCCC/C=C\[C@@H]2C[C@@]2(C(=O)NS(=O)(=O)N2CC(F)(F)C2)NC(=O)C2C[C@@H](OC(=O)N3Cc4cccc(Cl)c4C3)CN2C1=O)OC1CCCC1 (some centres unmarked) [Compound 228]	full-length NS3/NS4A-2 (HCV NS3 protease) (Hepatitis C virus genotype 1a, UniProt P27958)	< 100 nM
CC(C)S(=O)(=O)NC(=O)[C@@]12C[C@H]1/C=C\CCCCC[C@H](NC(=O)OC1CCCC1)C(=O)N1C[C@H](OC(=O)N3CCc4ccccc4C3)C[C@H]1C(=O)N2 [Compound 118]	full-length NS3/NS4A-2 (HCV NS3 protease) (Hepatitis C virus genotype 1a, UniProt P27958)	< 100 nM
CC(C)(C)OC(=O)N[C@H]1COCCC/C=C\[C@@H]2C[C@@]2(C(=O)O)NC(=O)[C@@H]2C[C@@H](OC(=O)N3Cc4cccc(Cl)c4C3)CN2C1=O [Compound 1024]	full-length NS3/NS4A-2 (HCV NS3 protease) (Hepatitis C virus genotype 1a, UniProt P27958)	< 100 nM
CC(C)(C)OC(=O)N[C@H]1CCCCC/C=C\[C@@H]2C[C@@]2(C(=O)NS(=O)(=O)NC2CCCCC2)NC(=O)[C@@H]2CCCN2C1=O [Compound 2205]	full-length NS3/NS4A-2 (HCV NS3 protease) (Hepatitis C virus genotype 1a, UniProt P27958)	< 1000 nM
COc1cccc(CCNS(=O)(=O)NC(=O)[C@@]23C[C@H]2/C=C\CCCCC[C@H](NC(=O)OC(C)(C)C)C(=O)N2CCC[C@H]2C(=O)N3)c1 [Compound 414]	full-length NS3/NS4A-2 (HCV NS3 protease) (Hepatitis C virus genotype 1a, UniProt P27958)	> 10000 nM
CN(C)C(=S)N[C@H]1CCCCC/C=C\[C@@H]2C[C@@]2(C(=O)NS(=O)(=O)C2CC2)NC(=O)[C@@H]2C[C@@H](OC(=O)N3Cc4cccc(F)c4C3)CN2C1=O [Compound 922]	full-length NS3/NS4A-2 (HCV NS3 protease) (Hepatitis C virus genotype 1a, UniProt P27958)	< 100 nM
COc1ccccc1NS(=O)(=O)NC(=O)[C@@]12C[C@H]1/C=C\CCCCC[C@H](NC(=O)OC(C)(C)C)C(=O)N1CCC[C@H]1C(=O)N2 [Compound 2236]	full-length NS3/NS4A-2 (HCV NS3 protease) (Hepatitis C virus genotype 1a, UniProt P27958)	< 1000 nM
O=C1N[C@]2(C(=O)NS(=O)(=O)C3CC3)C[C@H]2/C=C\CCCCC[C@H](NC2CCCC2)C(=O)N2C[C@H](OC(=O)N3Cc4cccc(F)c4C3)C[C@@H]12 [Compound 919]	full-length NS3/NS4A-2 (HCV NS3 protease) (Hepatitis C virus genotype 1a, UniProt P27958)	< 100 nM
O=C1N[C@]2(C(=O)NS(=O)(=O)C3CC3)C[C@H]2/C=C\CCCCC[C@H](Nc2nccs2)C(=O)N2C[C@H](OC(=O)N3Cc4cccc(F)c4C3)C[C@@H]12 [Compound 924]	full-length NS3/NS4A-2 (HCV NS3 protease) (Hepatitis C virus genotype 1a, UniProt P27958)	< 100 nM
CC(C)(C)OC(=O)N[C@H]1CCCCC/C=C\[C@@H]2C[C@@]2(C(=O)O)NC(=O)[C@@H]2C[C@@H](OC(=O)N3Cc4ccc(N5CCOCC5)cc4C3)CN2C1=O [Compound 176]	full-length NS3/NS4A-2 (HCV NS3 protease) (Hepatitis C virus genotype 1a, UniProt P27958)	< 100 nM
